experiment: in vivo; conditions: rat, im, 4 mg/kg, level in the lungs
quantityKind: concentration at 24 h (ng/g)
Just the number in ng/g, nothing appended.

Prompt: Can you share its concentration at 24 h? I mean this compound: N=C(N)c1ccc(OCCCCCOc2ccc(C(=N)N)cc2)cc1 [pentamidine, Pentamidine isethionate]
Completion: 800
